- SYSTEM_NAME: MAP kinase-activated protein kinase 2 (Homo sapiens) (UniProt P49137);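 note: values are mean inhibition from the GSK PKIS screen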
- Sequence (P49137 whole entry, looked up): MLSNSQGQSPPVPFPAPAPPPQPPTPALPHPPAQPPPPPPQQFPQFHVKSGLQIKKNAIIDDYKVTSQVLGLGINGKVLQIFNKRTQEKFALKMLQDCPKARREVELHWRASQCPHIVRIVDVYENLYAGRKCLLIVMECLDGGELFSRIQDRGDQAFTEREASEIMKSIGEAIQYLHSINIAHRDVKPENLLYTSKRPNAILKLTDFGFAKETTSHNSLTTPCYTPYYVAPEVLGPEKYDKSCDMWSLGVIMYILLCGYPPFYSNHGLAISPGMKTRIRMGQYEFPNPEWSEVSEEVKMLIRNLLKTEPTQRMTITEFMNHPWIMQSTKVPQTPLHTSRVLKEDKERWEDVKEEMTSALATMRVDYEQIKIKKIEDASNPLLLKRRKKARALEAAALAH
- MEASUREMENT_SETUP: at 1 µM
Reported values of inhibition for individual entries
Give a bare numeral; the unit % is implied.

Reference set, count: 9
> print(dat)
                            chemical.string  experimental.readout  obs.value
1  CS(=O)(=O)CCNCc1ccc(-c2ccc3ncnc(Nc4ccc(OCc5cccc(F)c5)c(C(F)(F)F)c4)c3c2)o1            inhibition        4.5
2  [O-][S+]1CCN(Cc2ccc(-c3ccc4ncnc(Nc5ccc(OCc6ccccc6)c(F)c5)c4c3)o2)CC1            inhibition       0.42
3  Nc1nc(-c2ccc3c(c2)C(=Cc2cc(Br)c(O)c(Br)c2)C(=O)N3)cs1            inhibition      -1.55
4  Cc1nn(C)c2cc(N(C)c3ccnc(Nc4cccc(S(N)(=O)=O)c4)n3)ccc12            inhibition       3.29
5  NC(=O)c1cccc(Nc2nccc(Nc3cccc4[nH]ncc34)n2)c1            inhibition      -2.06
6  O=C(Nc1n[nH]c2nc(-c3ccco3)c(Br)cc12)C1CC1            inhibition       1.26
7   COc1cc(C=NNc2ncnc3c2cnn3-c2ccccc2)ccc1O            inhibition      -2.21
8  Nc1ncnc2occ(-c3ccc(NC(=O)Nc4cccc(C(F)(F)F)c4)cc3)c12            inhibition       3.15
9  CCn1c(-c2nonc2N)nc2c(C#CC(C)(C)O)nc(OC[C@@H](N)c3ccccc3)cc21            inhibition      -3.91

`CNC(=O)c1cncc(/C=C/c2c(Cl)cccc2Cl)c1` has a reported inhibition of 2.98
